- Assay target: Cathepsin D (Homo sapiens, UniProt P07339)
- Sequence (P07339 65-162 limits assumed): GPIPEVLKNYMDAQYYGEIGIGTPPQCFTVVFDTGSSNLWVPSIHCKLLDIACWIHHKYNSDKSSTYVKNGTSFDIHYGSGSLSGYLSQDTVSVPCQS
- Sequence (P07339 169-412 limits assumed): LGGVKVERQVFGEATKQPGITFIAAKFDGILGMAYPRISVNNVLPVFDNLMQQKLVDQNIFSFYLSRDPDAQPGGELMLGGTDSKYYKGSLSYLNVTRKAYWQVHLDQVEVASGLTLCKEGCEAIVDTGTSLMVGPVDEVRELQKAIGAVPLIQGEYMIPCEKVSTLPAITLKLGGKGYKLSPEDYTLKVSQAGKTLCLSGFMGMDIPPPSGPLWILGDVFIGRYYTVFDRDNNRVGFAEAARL
- Assay: Inhibitory activity against human Cathepsin D; Range
pKi: −log10 of the molar value.
Experimental endpoint: pKi

1) C=CCO[C@@H](CN[C@H]1c2ccccc2C[C@H]1O)[C@H](O)[C@@H](O)[C@@H](OCC=C)C(=O)N[C@H]1c2ccccc2C[C@H]1O | < 5.70

---

- Assay target: UniProt P46925
pKi: −log10 of the molar value.
Use 7 as the dividing line for pKi, with the line itself on the Satisfied side and lower values as Not satisfied.

1. Cc1noc(C)c1/C=C/CO[C@@H](C(=O)N[C@H]1c2ccccc2C[C@H]1O)[C@H](O)[C@@H](O)[C@@H](OC/C=C/c1c(C)noc1C)C(=O)N[C@H]1c2ccccc2C[C@H]1O | Not satisfied
2. COc1ncc(/C=C/CO[C@@H](C(=O)N[C@H]2c3ccccc3C[C@H]2O)[C@H](O)[C@@H](O)[C@@H](OC/C=C/c2cnc(OC)nc2OC)C(=O)N[C@H]2c3ccccc3C[C@H]2O)c(OC)n1 | Satisfied
3. COC(=O)/C=C/C=C/CO[C@@H](C(=O)N[C@H]1c2ccccc2C[C@H]1O)[C@H](O)[C@@H](O)[C@@H](OC/C=C/C=C/C(=O)OC)C(=O)N[C@H]1c2ccccc2C[C@H]1O | Satisfied
4. C#C/C=C/CO[C@@H](C(=O)N[C@H]1c2ccccc2C[C@H]1O)[C@H](O)[C@@H](O)[C@@H](OC/C=C/C#C)C(=O)N[C@H]1c2ccccc2C[C@H]1O | Satisfied
5. CNC(=O)[C@@H](NC(=O)[C@H](OCc1ccccc1)[C@H](O)[C@@H](O)[C@@H](OCc1ccccc1)C(=O)N[C@H](C(=O)NC)C(C)C)C(C)C | Not satisfied

---

- Assay target: Plasmepsin I (Plasmodium falciparum)
Experimental endpoint: Ki (nM)

1. O=C(N[C@H]1c2ccccc2C[C@H]1O)[C@H](OC/C=C/c1ccsc1)[C@H](O)[C@@H](O)[C@@H](OC/C=C/c1ccsc1)C(=O)N[C@H]1c2ccccc2C[C@H]1O | 1.3
2. CC(=O)c1ccc(/C=C/CO[C@@H](C(=O)N[C@H]2c3ccccc3C[C@H]2O)[C@H](O)[C@@H](O)[C@@H](OC/C=C/c2ccc(C(C)=O)cc2)C(=O)N[C@H]2c3ccccc3C[C@H]2O)cc1 | 0.8
3. COc1ncc(/C=C/CO[C@@H](C(=O)N[C@H]2c3ccccc3C[C@H]2O)[C@H](O)[C@@H](O)[C@@H](OC/C=C/c2cnc(OC)nc2OC)C(=O)N[C@H]2c3ccccc3C[C@H]2O)c(OC)n1 | 8.4
4. O=C(N[C@H]1c2ccccc2C[C@H]1O)[C@H](OC/C=C/c1ccc(F)cc1)[C@H](O)[C@@H](O)[C@@H](OC/C=C/c1ccc(F)cc1)C(=O)N[C@H]1c2ccccc2C[C@H]1O | 2.5

---

Listing: Ki of selected compounds
- Assay target: Plasmepsin I (Plasmodium falciparum, UniProt P39898)
- Sequence (P39898 whole entry): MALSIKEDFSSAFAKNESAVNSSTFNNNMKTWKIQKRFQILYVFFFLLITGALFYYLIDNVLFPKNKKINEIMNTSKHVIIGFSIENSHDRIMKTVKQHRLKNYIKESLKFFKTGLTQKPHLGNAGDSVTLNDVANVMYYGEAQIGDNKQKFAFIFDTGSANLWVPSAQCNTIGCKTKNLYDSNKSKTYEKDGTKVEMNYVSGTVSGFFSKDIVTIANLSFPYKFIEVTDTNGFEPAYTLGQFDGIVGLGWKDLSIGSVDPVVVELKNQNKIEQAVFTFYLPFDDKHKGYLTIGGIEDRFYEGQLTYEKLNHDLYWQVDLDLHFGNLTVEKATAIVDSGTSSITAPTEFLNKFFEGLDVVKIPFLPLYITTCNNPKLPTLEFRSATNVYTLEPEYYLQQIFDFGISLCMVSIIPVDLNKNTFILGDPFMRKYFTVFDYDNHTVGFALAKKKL
- Assay: Inhibitory activity against protease plasmepsin-1 (Plm I) of Plasmodium falciparum
Experimental endpoint: Ki (nM)

1. O=C(N[C@H]1c2ccccc2C[C@H]1O)[C@H](OC/C=C/Br)[C@H](O)[C@@H](O)[C@@H](OC/C=C/Br)C(=O)N[C@H]1c2ccccc2C[C@H]1O | 27
2. Cc1ccc(/C=C/CO[C@@H](C(=O)N[C@H]2c3ccccc3C[C@H]2O)[C@H](O)[C@@H](O)[C@@H](OC/C=C/c2ccc(C)cc2)C(=O)N[C@H]2c3ccccc3C[C@H]2O)cc1 | 5.8
3. C=CCO[C@@H](C(=O)N[C@H]1c2ccccc2C[C@H]1O)[C@H](O)[C@@H](O)[C@@H](OCC=C)C(=O)N[C@H]1c2ccccc2C[C@H]1O | 163
4. O=C(N[C@H]1c2ccccc2C[C@H]1O)[C@H](OCc1ccccc1)[C@H](O)[C@@H](O)[C@@H](OCc1ccccc1)C(=O)N[C@H]1c2ccccc2C[C@H]1O | 25

---

As a worked illustration, we turn to Ki data collected for Plasmepsin II (Plasmodium falciparum, UniProt P46925).
Experimental endpoint: Ki (µM)

1. C=CCO[C@@H](C(=O)N[C@H](C(=O)NC)C(C)C)[C@H](O)[C@@H](O)[C@@H](OCC=C)C(=O)N[C@H](C(=O)NC)C(C)C | 4.1
2. O=C(N[C@H]1c2ccccc2C[C@H]1O)[C@H](OC/C=C/c1ccccc1)[C@H](O)[C@@H](O)[C@@H](OC/C=C/c1ccccc1)C(=O)N[C@H]1c2ccccc2C[C@H]1O | 0.029
